Entries and their Rel Reaction rates, Kal (Kallikrein) values follow.
System: Kallikrein
Experiment: Relative reaction rate of enzymatic hydrolysis of chromogenic substrates, kallikrein (p-nitroaniline release at 405 nm)
Assay type: biochemical
Conditions: relative to reference substrate XVI
Where a name gives a salt, the structure may show the parent alone. Where a SMILES comes first, the peptide text is derived from it. [ ]: non-standard residue; d: D form. The star is where a group is joined. pNA = O=[N+]([O-])c1ccc(N*)cc1; Bz = O=C(c1ccccc1)*

| molecule | Rel Reaction rates, Kal (Kallikrein) |
| --- | --- |
| CC(C)C[C@H](NC(=O)[C@H](N)C(C)C)C(=O)N[C@@H](CCCNC(=N)N)C(=O)Nc1ccc([N+](=O)[O-])cc1 [XVI, H-D-Val-Leu-ARg-pNA . 2 HCl] (H-[dV]-Leu-Arg-pNA) | 100 |
| CC[C@H](C)[C@H](N)C(=O)N[C@@H](CC(C)C)C(=O)N[C@@H](CCCNC(=N)N)C(=O)Nc1ccc([N+](=O)[O-])cc1 [H-Ile-Leu-Arg-pNA] (H-Ile-Leu-Arg-pNA) | 20 |
| CC[C@H](C)[C@H](NC(=O)c1ccccc1)C(=O)N[C@@H](CC(C)C)C(=O)N[C@@H](CCCNC(=N)N)C(=O)Nc1ccc([N+](=O)[O-])cc1 [Bz-Ile-Leu-Arg-pNA] (Bz-Ile-Leu-Arg-pNA) | 100 |
| CC[C@@H](C)[C@@H](N)C(=O)N[C@@H](CC(C)C)C(=O)N[C@@H](CCCNC(=N)N)C(=O)Nc1ccc([N+](=O)[O-])cc1 [XV, H-D-Ile-Leu-Arg-pNA . 2 HCl] (H-[dI]-Leu-Arg-pNA) | 100 |
| CC(C)C[C@H](NC(=O)[C@@H](N)C(C)C)C(=O)N[C@@H](CCCNC(=N)N)C(=O)Nc1ccc([N+](=O)[O-])cc1 [H-Val-Leu-Arg-pNA] (H-Val-Leu-Arg-pNA) | 50 |
| CC(C)C[C@H](NC(=O)[C@@H](NC(=O)c1ccccc1)C(C)C)C(=O)N[C@@H](CCCNC(=N)N)C(=O)Nc1ccc([N+](=O)[O-])cc1 [Bz-Val-Leu-Arg-pNA] (Bz-Val-Leu-Arg-pNA) | 100 |

Values were extracted from patent US4137225A.
